B1: POMT2 (parent)
chain: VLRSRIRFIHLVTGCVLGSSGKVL

Variants of: B1
Assay: protein stability index of a GFP-peptide fusion (GPS, HEK-293T) (PSI 1-6); higher = more stable;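 also: lentivirally expressed fusions sorted by FACS into six bins by GFP to DsRed ratio, PSI derived from sequencing read proportions per bin multiplied by bin number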
Details: c terminus: a fixed tail appended
endpoint: protein stability index
Provide a numeric answer; units are not to be included.

Worked cases, answers included:
C15W | 2.95
H10T | 2.92
R5Y | 2.99
V1T | 3
R7T | 3

Reported protein stability index of V1N : 3.04

Entry K22V ; protein stability index = 3.02

Source listed as the supplement of paper PMC10567573.
